These data points were gathered from the supplement of paper PMC10127200.

test system: OVCAR4; assay: Euclidean distance of Cell Painting phenotypic profile (signed KS, 77 features) to DMSO centroid (dimensionless distance); 5 or 10 uM (library dependent); higher = stronger phenotypic change vs DMSO (phenoactivity); conditions: 48 h
Mark True for reported Euclidean distance of 1 or greater; mark False for anything smaller.

Hello, I need to know if Cc1c(-c2ccc(O)cc2)n(Cc2ccc(OCCN3CCCCCC3)cc2)c2ccc(O)cc12 [Bazedoxifene Acetate] has measured Euclidean distance not below 1. Thanks!
True

---

system: HEPG2; assay: Euclidean distance of Cell Painting phenotypic profile (signed KS, 77 features) to DMSO centroid (dimensionless distance); 5 or 10 uM (library dependent); higher = stronger phenotypic change vs DMSO (phenoactivity); details: 48 h
Counter-ions that a name gives are not always drawn.
Endpoint: Euclidean distance
Output spec: single numeric token, no unit.

Recorded results for 6 compounds are shown here.
CCC[C@H](N[C@@H](C)C(=O)N1[C@H](C(=O)O)C[C@@H]2CCCC[C@@H]21)C(=O)OCC [Perindopril Erbumine]
1.41
CNC[C@H](O)c1ccc(O)c(O)c1 [Epinephrine bitartrate]
0.637
Fc1ccc([C@@H]2CCNC[C@H]2COc2ccc3c(c2)OCO3)cc1 [Paroxetine HCl]
2.28
CN(CCCCCCCCCCN(C)C(=O)Oc1cccc([N+](C)(C)C)c1)C(=O)Oc1cccc([N+](C)(C)C)c1 [Demecarium Bromide]
1.17
CCN(CC)CCNC(=O)c1ccc(N)cc1 [Procainamide HCl]
0.326
CC(C)N1CCN(Cc2cnc(-c3cc(-c4cccc5[nH]ccc45)cc4[nH]ncc34)o2)CC1
3.14

Give the measured Euclidean distance for OCCOCCN1CCN(C2=Nc3ccccc3Sc3ccccc32)CC1 [Quetiapine]
1.02

Return Euclidean distance for the following compound: `CN(C)C1CCN(C(=O)c2ccc(NC(=O)Nc3ccc(-c4nc(N5CCOCC5)nc(N5CCOCC5)n4)cc3)cc2)CC1`
2.04
